Target: δ opioid receptors (Mus musculus)
Construct: Bioassays Using Isolated Organ Preparations; from tissue; host or cells: mouse vas deferens (isolated organ)
Sequence (P32300 whole entry): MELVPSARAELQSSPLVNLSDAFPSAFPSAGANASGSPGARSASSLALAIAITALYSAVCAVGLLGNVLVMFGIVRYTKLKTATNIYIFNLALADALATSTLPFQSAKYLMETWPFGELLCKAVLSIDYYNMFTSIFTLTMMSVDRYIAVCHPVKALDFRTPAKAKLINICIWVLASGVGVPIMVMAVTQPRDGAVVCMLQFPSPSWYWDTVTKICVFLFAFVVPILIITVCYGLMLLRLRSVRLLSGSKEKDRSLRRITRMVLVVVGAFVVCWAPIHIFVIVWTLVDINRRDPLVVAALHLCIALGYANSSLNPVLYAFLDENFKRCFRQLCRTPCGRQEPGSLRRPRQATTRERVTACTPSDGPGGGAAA
Assay: Mouse vas deferens (MVD) bioassay, antagonism of electrically evoked contraction inhibition by δ-selective agonists
Type: tissue-based
Details: Ke (nM) against DPDPE, MVD assay; δ agonist DPDPE; means of 3-8 determinations
Source text: a) Biosassys based on inhibition of electrically evoked contractions of the mouse vas deferens (MVD) and of the guinea pig ileum (GPI). In the GPI assay the opioid effect is primarily mediated by μ opioid receptors, whereas in the MVD assay the inhibition of the contractions is mostly due to interaction with δ opioid receptors. The GPI and MVD bioassays were carded out as reported in P. W. Schiller et al., Biochem. Biophys. […]
Peptide text beside a SMILES is read from it.

compound	Kb [nM]
N[C@@H](Cc1ccc(O)cc1)C(=O)N1Cc2ccccc2C[C@H]1C(=O)N[C@@H](Cc1c[nH]c2ccccc12)C(=O)N[C@@H](Cc1ccc([N+](=O)[O-])cc1)C(=O)O [HTyrTicTrpPhe(pNO2)OH, H-Tyr-Tic-Trp-Phe(pNO2)-OH] (HELM PEPTIDE1{Y.[Tic].W.[O=C(O)[C@H](Cc1ccc([N+](=O)[O-])cc1)N[*:1]]}$$$$V2.0)	4.4
N[C@@H](Cc1ccc(O)cc1)C(=O)N1Cc2ccccc2C[C@H]1C(=O)N[C@H](C(=O)N[C@@H](Cc1ccccc1)C(=O)O)c1ccccc1 [HTyrTicPhgPheOH, H-Tyr-Tic-Phg-Phe-OH] (HELM PEPTIDE1{Y.[Tic].[Phg].F}$$$$V2.0)	21.5
CC(C)[C@H](NC(=O)[C@H](Cc1ccccc1)NC(=O)[C@H](Cc1ccccc1)NC(=O)[C@@H]1Cc2ccccc2CN1C(=O)[C@@H](N)Cc1ccc(O)cc1)C(=O)N[C@H](C(=O)NCC(N)=O)C(C)C [HTyrTicPhePheValValGlyNH2, H-Tyr-Tic-Phe-Phe-Val-Val-Gly-NH2] (HELM PEPTIDE1{Y.[Tic].F.F.V.V.G.[am]}$$$$V2.0)	6.36
